Where do the numbers come from? From ChEMBL document CHEMBL1123658.

assay: In vivo toxic effect was determined in mouse after intraperitoneal administration with 10% aqueous acacia gum; value ranges from 0.56-0.94; type: toxicity, organism-based; settings: ip
Measured quantity: LD50 (µmol/kg)
Write the value in µmol/kg as a bare number.

Inquiry: Give reported LD50 value for `Cc1cc(C)c(C)c(NC(=O)CN2CCN(c3ccccn3)CC2)c1C`
Reply text: 650

* * *

assay: In vivo toxic effect was determined in mouse after intraperitoneal administration with 10% aqueous acacia gum; value ranges from 5.14-9.14; type: toxicity, organism-based; conditions: ip
Measured quantity: LD50 (µmol/kg)
Lab book: enter the figure in µmol/kg, no units written.

Inquiry: # return recorded LD50 for entry CCOC(=O)CC(C)N1CCN(c2ccccn2)CC1.Cl.Cl (stereo unspecified)
Reply text: 6850

* * *

assay: In vivo toxic effect was determined in mouse after oral administration with 10% aqueous acacia gum; value ranges from 0.69-1.33; assay type: toxicity, organism-based
Measured quantity: LD50 (µmol/kg)
Please give a number only; it is taken to be in µmol/kg.

Inquiry: Kindly indicate its recorded LD50. Item: `Cl.Cl.O=C(CCN1CCN(c2ccccn2)CC1)Nc1ccc(Cl)cc1`
Reply text: 960

* * *

experiment: In vivo toxic effect was determined in mouse after intraperitoneal administration with 10% aqueous acacia gum; value ranges from 0.55-1.17; assay type: toxicity, organism-based; conditions: ip
Measured quantity: LD50 (µmol/kg)
Give the value, in units of µmol/kg, as a plain number.

Inquiry: Using the record for `Cl.Cl.O=C(CCN1CCN(c2ccccn2)CC1)Nc1ccc(Cl)cc1` , state its measured LD50.
Reply text: 620

* * *

test: In vivo toxic effect was determined in mouse after oral administration with 10% aqueous acacia gum; value ranges from 0.66-1.27; type: toxicity, organism-based
Measured quantity: LD50 (µmol/kg)
Express your answer in µmol/kg, writing the number without its unit.

Inquiry: Fill in LD50 for record `CCOC(=O)c1ccc(NC(=O)CCN2CCN(c3ccccn3)CC2)cc1.Cl.Cl`
Reply text: 920

* * *

test: In vivo toxic effect was determined in mouse after oral administration with 10% aqueous acacia gum; value ranges from 1.72-3.90; type: toxicity, organism-based
Measured quantity: LD50 (µmol/kg)
Field: numeric (µmol/kg). Do not append units.

Inquiry: Answer with the recorded LD50 for the compound listed here: `Cl.Cl.O=C(CCN1CCN(c2ccccn2)CC1)Nc1ccccc1Cl`
Reply text: 2640

* * *

test: In vivo toxic effect was determined in mouse after intraperitoneal administration with 10% aqueous acacia gum; value ranges from 3.43-5.07; type: toxicity, organism-based; details: ip
Measured quantity: LD50 (µmol/kg)
Give just the number in µmol/kg; leave the unit off.

Inquiry: Identify LD50 associated with the molecule `COC(=O)CCN1CCN(c2ccccn2)CC1.Cl`
Reply text: 4020

* * *

experiment: In vivo toxic effect was determined in mouse after intraperitoneal administration with 10% aqueous acacia gum; value ranges from 0.97-2.74; type: toxicity, organism-based; conditions: ip
Measured quantity: LD50 (µmol/kg)
Report only the number, with the unit µmol/kg understood.

Inquiry: Please list LD50 recorded for the molecule `O=C(CCN1CCN(c2ccccn2)CC1)Nc1ccccc1`
Reply text: 1160

* * *

assay: In vivo toxic effect was determined in mouse after intraperitoneal administration with 10% aqueous acacia gum; value ranges from 0.85-1.18; assay type: toxicity, organism-based; conditions: ip
Measured quantity: LD50 (µmol/kg)
Quick note: give the figure in µmol/kg, leave out the unit.

Inquiry: Specify measured LD50 for `Cl.Nc1cccc(NC(=O)CCN2CCN(c3ccccn3)CC2)c1` .
Reply text: 900
